Test system: little red worker ants (Monomorium pharaonis)
Assay: Test Example 3: vial inner-wall contact test, 1 hour exposure, little red worker ants
Assay type: in vivo
Details: 100 mg/m^2 treated per area, Monomorium pharaonis workers, after 1 day, read-out: Moribund and mortal rates (%) after 1 day
Please respond with reported mortality at 100 mg/m2 for every item in the list.
One number for each entry, in %.

Use the examples below as a reference point.
molecule=CCS(=O)(=O)c1cc(C2CC2)cnc1-c1nc2cc(S(=O)(=O)C(F)(F)F)ccc2o1 test_target="little red worker ants (Monomorium pharaonis)" measure_unit=% value_reported=100
molecule="CCS(=O)(=O)c1cc(C2CC2)cnc1-c1nc2cc([S+]([O-])C(F)(F)F)ccc2o1 (stereo not drawn)" test_target="little red worker ants (Monomorium pharaonis)" measure_unit=% value_reported=100
molecule="CCS(=O)(=O)c1cc(C(F)(F)F)cnc1-c1nc2cc([S+]([O-])C(F)(F)F)ccc2o1 (stereo not drawn)" test_target="little red worker ants (Monomorium pharaonis)" measure_unit=% value_reported=40
molecule=CCS(=O)(=O)c1cc(C)cnc1-c1nc2cc(S(=O)(=O)C(F)(F)F)ccc2o1 test_target="little red worker ants (Monomorium pharaonis)" measure_unit=% value_reported=20
molecule=CCS(=O)(=O)c1cc(C(F)(F)F)cnc1-c1nc2cc(S(=O)(=O)C(F)(F)F)ccc2o1 test_target="little red worker ants (Monomorium pharaonis)" measure_unit=% value_reported=50

Lab note: next molecule to report on.
Data request: Requested read-out: mortality at 100 mg/m2. Entry: CCS(=O)(=O)c1cc(C)cnc1-c1nc2cc([S+]([O-])C(F)(F)F)ccc2o1 (stereo not drawn)
Data returned: 30
